Test system: 521955-158-R2-J5-PDC complex spheroids, viability
Test: Anticancer human tumor 521955-158-R2-J5-PDC patient-derived pancreatic carcinoma cell line growth inhibition [RAS]; active = viability on the fitted dose curve at most 10% of control; inactive = the rest
Conditions: second compound 0.3 µM; first compound 0.1 µM
Text: RAS pathway inhibitors in Combinations in Complex Spheroids A high-throughput screen of multi-cell type tumor spheroids was designed to identify active combinations of RAS pathway inhibitors and targeted small molecules. Complex spheroids include a stromal component modeled by human endothelial cells (HUVEC) and fibroblasts modeled by human mesenchymal stem cells (MSCs). […] Compounds. […] If the clinical Cmax for an agent had not been determined, the highest concentration tested was 10 microM. […]
Please answer using one outcome listed in active, inactive

CC1(O)CCCC1n1c(=O)c(C(F)F)cc2cnc(NC3CCN(S(C)(=O)=O)CC3)nc21 (centres undefined) + CCn1c(-c2cccnc2C(C)OC)c2c3cc(ccc31)N1CCOC(CC(NC(=O)C(C(C)C)N(C)C(=O)C3(F)CCN(C(=O)C#CC(C)(C)N(C)C)CC3)C(=O)N3CCCC(N3)C(=O)OCC(C)(C)C2)C1	inactive
Cc1nc(N2CCC3(CC2)COC(C)C3N)c(CO)nc1Sc1ccnc(N)c1Cl (centres undefined) + CCn1c(-c2cc(N3CCN(C)CC3)cnc2C(C)OC)c2c3cc(ccc31)-c1csc(n1)CC(NC(=O)C1CC1C)C(=O)N1CCCC(N1)C(=O)OCC(C)(C)C2	active
CC(Nc1ccc2c(c1)OCCn1cc(N3C(=O)OCC3C(F)F)nc1-2)C(N)=O (centres undefined) + CCn1c(-c2cc(N3CCN(C)CC3)cnc2C(C)OC)c2c3cc(ccc31)-c1csc(n1)CC(NC(=O)C1CC1C)C(=O)N1CCCC(N1)C(=O)OCC(C)(C)C2	active

Now look at this entry.
Hello, I am checking results. What call was entered for CC1(O)CCCC1n1c(=O)c(C(F)F)cc2cnc(NC3CCN(S(C)(=O)=O)CC3)nc21 (centres undefined) + CCn1c(-c2cc(N3CCN(C)CC3)cnc2C(C)OC)c2c3cc(ccc31)-c1csc(n1)CC(NC(=O)C1CC1C)C(=O)N1CCCC(N1)C(=O)OCC(C)(C)C2 ?
inactive

###

In this section, each of the compounds is paired with its reported viability, T/C.
test system: 521955-158-R2-J5-PDC complex spheroids, viability; experiment: Anticancer human tumor 521955-158-R2-J5-PDC cell line growth inhibition [RAS]; details: second compound 0.1 µM; first compound 3.16 µM; active compounds read low;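 note: spheroids also contain HUVEC endothelial cells and mesenchymal stem cells as stroma; compound exposure lasted seven days before the viability read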
Number in %, nothing else.

Solved entries:
CC(=O)OC12COC1CC(O)C1(C)C(=O)C(O)C3=C(C)C(OC(=O)C(O)C(NC(=O)OC(C)(C)C)c4ccccc4)CC(O)(C(OC(=O)c4ccccc4)C21)C3(C)C (configuration not stated) + C=CC(=O)N1CCN(c2nc(OCC3CCCN3C)nc3c(F)c(-c4nc(N)cc(C)c4C(F)(F)F)c(Cl)cc23)C(C)C1	35.8
NC1c2ccccc2OC12CCN(c1cnc3c(N4CCCc5ncccc54)n[nH]c3n1)CC2 (configuration not stated) + C=CC(=O)N1CCN(c2nc(OCC3CCCN3C)nc3c(F)c(-c4nc(N)cc(C)c4C(F)(F)F)c(Cl)cc23)C(C)C1	51.8
C[C@@H](NC(=O)c1ncnc(N)c1Cl)c1ncc(C(=O)Nc2cc(C(F)(F)F)c(Cl)cn2)s1 + C#Cc1c(F)ccc2cc(O)cc(-c3ncc4c(N5CC6CCC(C5)N6)nc(OCC56CCCN5CC(F)C6)nc4c3F)c12	57.2

Given CCC(CC)c1cc(NC2CCC(N)C2)n2nccc2n1 (configuration not stated) + C=CC(=O)N1CCN(c2nc(OCC3CCCN3C)nc3c(F)c(-c4nc(N)cc(C)c4C(F)(F)F)c(Cl)cc23)C(C)C1 , state its recorded viability, T/C.
10.2

Follow-up entry: CC(Nc1ccc2c(c1)OCCn1cc(N3C(=O)OCC3C(F)F)nc1-2)C(N)=O (configuration not stated) + C=CC(=O)N1CCN(c2nc(OCC3CCCN3C)nc3c(F)c(-c4nc(N)cc(C)c4C(F)(F)F)c(Cl)cc23)C(C)C1
28.8

Follow-up entry: C[C@@H](NC(=O)c1ncnc(N)c1Cl)c1ncc(C(=O)Nc2cc(C(F)(F)F)c(Cl)cn2)s1 + C=CC(=O)N1CCN(c2nc(OCC3CCCN3C)nc3c(F)c(-c4nc(N)cc(C)c4C(F)(F)F)c(Cl)cc23)C(C)C1
73.1

Follow-up entry: Cc1nc(N2CCC3(CC2)COC(C)C3N)c(CO)nc1Sc1ccnc(N)c1Cl (configuration not stated) + C=CC(=O)N1CCN(c2nc(OCC3CCCN3C)nc3c(F)c(-c4nc(N)cc(C)c4C(F)(F)F)c(Cl)cc23)C(C)C1
63

Follow-up entry: CC(C)NCC(C(=O)N1CCN(c2ncnc3c2C(C)CC3O)CC1)c1ccc(Cl)cc1 (configuration not stated) + C#Cc1c(F)ccc2cc(O)cc(-c3ncc4c(N5CC6CCC(C5)N6)nc(OCC56CCCN5CC(F)C6)nc4c3F)c12
8.3

Follow-up entry: CC(Nc1ccc2c(c1)OCCn1cc(N3C(=O)OCC3C(F)F)nc1-2)C(N)=O (configuration not stated) + C#Cc1c(F)ccc2cc(O)cc(-c3ncc4c(N5CC6CCC(C5)N6)nc(OCC56CCCN5CC(F)C6)nc4c3F)c12
13.6

Follow-up entry: Cc1nc(N2CCC3(CC2)COC(C)C3N)c(CO)nc1Sc1ccnc(N)c1Cl (configuration not stated) + C#Cc1c(F)ccc2cc(O)cc(-c3ncc4c(N5CC6CCC(C5)N6)nc(OCC56CCCN5CC(F)C6)nc4c3F)c12
39.7

Follow-up entry: CCC(CC)c1cc(NC2CCC(N)C2)n2nccc2n1 (configuration not stated) + C#Cc1c(F)ccc2cc(O)cc(-c3ncc4c(N5CC6CCC(C5)N6)nc(OCC56CCCN5CC(F)C6)nc4c3F)c12
8.07

Follow-up entry: NC1c2ccccc2OC12CCN(c1cnc3c(N4CCCc5ncccc54)n[nH]c3n1)CC2 (configuration not stated) + C#Cc1c(F)ccc2cc(O)cc(-c3ncc4c(N5CC6CCC(C5)N6)nc(OCC56CCCN5CC(F)C6)nc4c3F)c12
14.2

Numbers sourced from PubChem BioAssay AID2060900.
